System: T78-1
Assay Notes: Cytotoxicity in T78-1 (NR-negative) cell lines
Assay type: functional, cell-based
Test Settings: Cricetulus griseus
Assay Metric: IC50 (µM)
Give the value in µM but do not write µM after it.

Example entries and their recorded answers appear below.
>>> result("O=C(NCC(O)CO)c1cc([N+](=O)[O-])cc([N+](=O)[O-])c1N(CCI)CCI (stereo unspecified)")
86
>>> result("NC(=O)c1cc(N(CCBr)CCBr)c([N+](=O)[O-])cc1[N+](=O)[O-]")
633
>>> result("NC(=O)c1cc(N(CCCl)CCCl)c([N+](=O)[O-])cc1[N+](=O)[O-]")
895
>>> result("NC(=O)c1cc([N+](=O)[O-])cc([N+](=O)[O-])c1N(CCBr)CCBr")
17.5
>>> result("NC(=O)c1cc([N+](=O)[O-])cc([N+](=O)[O-])c1N(CCI)CCI")
58
>>> result("NC(=O)c1cc(N2CC2)c([N+](=O)[O-])cc1[N+](=O)[O-]")
158
>>> result("CN(C)CCNC(=O)c1c([N+](=O)[O-])ccc(N(CCCl)CCCl)c1[N+](=O)[O-]")
722
>>> result("NC(=O)c1cc(N(CCI)CCI)c([N+](=O)[O-])cc1[N+](=O)[O-]")
71
>>> result("O=C(NCC(O)CO)c1cc(N(CCI)CCI)c([N+](=O)[O-])cc1[N+](=O)[O-] (stereo unspecified)")
793

Turning now to a further compound:
Asked: Return IC50 for the following compound: O=C(NCC(O)CO)c1cc([N+](=O)[O-])cc([N+](=O)[O-])c1N(CCCl)CCCl (stereo unspecified)
Given back: 919

----------
Quick reference: Ratio of the listed items.
Target Under Test: Modulator of drug activity A (Escherichia coli O157:H7) (UniProt Q8X6S1)
Assay Notes: IC50 ratio for NR-positive and NR-negative cell lines
Format: functional

>>> result("O=C(NCC(O)CO)c1cc(N(CCCl)CCCl)c([N+](=O)[O-])cc1[N+](=O)[O-] (stereo not drawn)")
"> 55"
>>> result("NC(=O)c1cc([N+](=O)[O-])cc([N+](=O)[O-])c1N(CCCl)CCCl")
"> 133"

Asked: Item `CS(=O)(=O)c1cc([N+](=O)[O-])c(C(N)=O)cc1N(CCCl)CCCl` : provide Ratio
Given back: > 17

----------
Tested on: T78-1
Assay Notes: Cytotoxicity in T78-1 (NR-negative) cell lines
Format: functional, cell-based
Test Settings: Cricetulus griseus
Assay Metric: IC50

>>> result("CS(=O)(=O)CCN(CCCl)c1cc(C(N)=O)c([N+](=O)[O-])cc1[N+](=O)[O-]")
"> 1000 µM"
>>> result("CS(=O)(=O)CCN(CCS(C)(=O)=O)c1cc(C(N)=O)c([N+](=O)[O-])cc1[N+](=O)[O-]")
"> 1000 µM"
>>> result("NC(=O)c1c([N+](=O)[O-])ccc(N(CCCl)CCCl)c1[N+](=O)[O-]")
"> 1000 µM"
>>> result("NC(=O)c1cc([N+](=O)[O-])cc([N+](=O)[O-])c1N(CCCl)CCCl")
"> 1000 µM"
>>> result("O=C(NCC(O)CO)c1cc(N(CCCl)CCCl)c([N+](=O)[O-])cc1[N+](=O)[O-] (stereo unspecified)")
"> 5000 µM"

Asked: Tell me measured IC50 for `CS(=O)(=O)c1cc([N+](=O)[O-])c(C(N)=O)cc1N(CCCl)CCCl` please.
Given back: > 1000 µM
